# Test system: NCI/ADR-RES ovarian
# Method description: NCI-60 one-dose screen, 48 h (100 = growth as untreated, 0 = no growth, -100 = all killed)
# Condition label: 10 µM unless noted
This is part of a sample that, as a whole, favours compounds with a hit. Of some 83,000 tested, about 20% had one in any assay.

Molecule: COc1c(O[C@@H]2OC(CO)[C@H](O)[C@H](O)C2O)cc2oc3cc(O)c(CC=C(C)C)c(O)c3c(=O)c2c1CC=C(C)C (some centres not stated)
growth [%]: 101
--
Molecule: Nc1nc(Nc2ccc([N+](=O)[O-])cc2O)nc(C(Cl)(Cl)Cl)n1
growth [%]: 48
--
Molecule: COc1ccc(C(=O)/C=C/c2ccc(C)cc2)cc1S(N)(=O)=O
growth [%]: 51.7
--
Molecule: N=C(N)c1ccc(-c2ccc(-c3ccccc3)s2)nc1
growth [%]: 96.7
--
Molecule: CCC(C)C(N)C(=O)NC(CC(C)C)C(=O)N1CCCC1C(=O)NC(Cc1c[nH]c2ccccc12)C(=O)NC(CCCCN)C(=O)NC(Cc1c[nH]c2ccccc12)C(=O)N1CCCC1C(=O)NC(Cc1c[nH]c2ccccc12)C(=O)NC(Cc1c[nH]c2ccccc12)C(=O)N1CCCC1C(=O)NC(Cc1c[nH]c2ccccc12)C(=O)NC(CCCNC(=N)N)C(=O)NC(CCCNC(=N)N)C(N)=O (configuration not stated)
growth [%]: 92.1
--
Molecule: CCOC(=O)CC1CSC(N/N=C/c2ccc(O)cc2)=N1 (configuration not stated)
growth [%]: 108
--
Molecule: O=C1N/C(=N/N=C(c2ccccc2)c2ccccc2)S/C1=C\c1ccc(Br)cc1
growth [%]: 103
